Biological target: Induced myeloid leukemia cell differentiation protein Mcl-1 [171-327] (Homo sapiens, UniProt Q07820)
Construct: 171-327
Sequence (Q07820 171-327): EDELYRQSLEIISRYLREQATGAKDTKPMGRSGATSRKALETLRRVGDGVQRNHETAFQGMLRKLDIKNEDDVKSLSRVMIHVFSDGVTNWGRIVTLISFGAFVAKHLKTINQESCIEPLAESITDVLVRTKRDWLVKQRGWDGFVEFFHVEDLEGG
Assay: TR-FRET Binding A
Conditions: pH 7.4; 24 °C
pKi: −log10 of the molar value.
readout-kind: pKi

P: CCc1nn(C)c(CC)c1-c1cccc2c(CCCOc3cccc4ccccc34)c(C(=O)O)n(CCN3CCOCC3)c12
Q: Cc1c(-c2cccc3c(CCCOc4cccc5ccccc45)c(C(=O)O)[nH]c23)c(COc2ccc(B(O)O)c(C=O)c2)nn1C
R: CC(=O)c1cccc(OCc2nn(C)c(C)c2-c2cccc3c(CCCOc4cccc5ccccc45)c(C(=O)O)[nH]c23)c1
S: Cc1c(-c2cccc3c(CCCOc4cccc5ccccc45)c(C(=O)O)[nH]c23)c(COc2cccc(C=O)c2)nn1C
Query :: List the 4 entries from lowest pKi to highest pKi value. Answer format: the labels, ordered as requested.
Result :: R, S, P, Q

====

Target: Induced myeloid leukemia cell differentiation protein Mcl-1 [171-327] (Homo sapiens, UniProt Q07820)
Construct: 171-327
Assay: TR-FRET Binding A
Conditions: pH 7.4; 24 °C
readout-kind: IC50 (nM)

P: CC(=O)c1cccc(OCc2nn(C)c(C)c2-c2cccc3c(CCCOc4cccc5ccccc45)c(C(=O)O)[nH]c23)c1
Q: Cc1c(-c2cccc3c(CCCOc4cccc5ccccc45)c(C(=O)O)[nH]c23)c(COc2cccc(C=O)c2)nn1C
R: Cc1c(-c2cccc3c(CCCOc4cccc5ccccc45)c(C(=O)O)n(C)c23)c(COc2ccc(B(O)O)c(C=O)c2)nn1C
Query :: Rank by decreasing IC50 the items listed here. Enter labels, ranked according to the request.
Result :: P, Q, R

====

Biological target: Induced myeloid leukemia cell differentiation protein Mcl-1 [171-327] (Homo sapiens)
Construct: 171-327
Experiment: TR-FRET Binding A
Settings: pH 7.4; 24 °C
pIC50: −log10 of the molar value.
readout-kind: pIC50

CCc1nn(C)c(CC)c1-c1cccc2c(CCCOc3cccc4ccccc34)c(C(=O)O)n(CCN3CCOCC3)c12 [Mcl-1 inhibitor 12]
8.22
CC(=O)c1cc(OCc2nn(C)c(C)c2-c2cccc3c(CCCOc4cccc5ccccc45)c(C(=O)O)[nH]c23)ccc1B(O)O
8.33

1: Cc1c(-c2cccc3c(CCCOc4cccc5ccccc45)c(C(=O)O)[nH]c23)c(COc2ccc(B(O)O)c(C=O)c2)nn1C
2: Cc1c(-c2cccc3c(CCCOc4cccc5ccccc45)c(C(=O)O)[nH]c23)c(COc2ccccc2)nn1C [Mcl-1 inhibitor 10]
Query :: For the two items 1 and 2 , which reports the higher pIC50 value? I would appreciate it if you answered with the label of your choice.
Result :: 1
(1: 8.47, 2: 6.42)
